Item-by-item account of DBIL
Organism: Rattus norvegicus
Assay: Open TG-GATES - Regimen: Single
Type: toxicity, organism-based, Sprague-Dawley
Design: regimen Single, gender Male, age 6 weeks
Settings: in vivo, po, 0 mg/kg, 3 h, tissue Plasma, route gavage, dose level Control

[
  {
    "compound": "NC(N)=Nc1nc(CSCCC(N)=NS(N)(=O)=O)cs1 [FAMOTIDINE]",
    "DBIL / mg/dL": 0.078
  },
  {
    "compound": "NNC(=O)c1ccncc1 [ISONIAZID]",
    "DBIL / mg/dL": 0.066
  },
  {
    "compound": "CN(C)CCN(Cc1cccs1)c1ccccn1",
    "DBIL / mg/dL": 0
  },
  {
    "compound": "O=C(CCCN1CCC(O)(c2ccc(Cl)cc2)CC1)c1ccc(F)cc1 [HALOPERIDOL]",
    "DBIL / mg/dL": 0.006
  },
  {
    "compound": "Cc1ccc(C)c(OCCCC(C)(C)C(=O)O)c1 [GEMFIBROZIL]",
    "DBIL / mg/dL": 0.046
  },
  {
    "compound": "COc1cc2c(c(OC)c1OC)-c1ccc(OC)c(=O)cc1[C@@H](NC(C)=O)CC2 [COLCHICINE]",
    "DBIL / mg/dL": 0.038
  },
  {
    "compound": "CC/C(=C(\\c1ccccc1)c1ccc(OCCN(C)C)cc1)c1ccccc1 [TAMOXIFEN]",
    "DBIL / mg/dL": 0.02
  },
  {
    "compound": "C[C@@H]1C[C@H]2[C@@H]3CCC4=CC(=O)C=C[C@]4(C)[C@@]3(F)[C@@H](O)C[C@]2(C)[C@@]1(O)C(=O)CO [DEXAMETHASONE]",
    "DBIL / mg/dL": 0.012
  },
  {
    "compound": "CCOC(=O)CCC(=O)O[C@H]1[C@H](O[C@@H]2[C@@H](C)[C@H](O[C@H]3C[C@@](C)(OC)[C@@H](O)[C@H](C)O3)[C@@H](C)C(=O)O[C@H](CC)[C@@](C)(O)[C@H](O)[C@@H](C)C(=O)[C@H](C)C[C@@]2(C)O)O[C@H](C)C[C@@H]1N(C)C [ERYTHROMYCIN ETHYLSUCCINATE]",
    "DBIL / mg/dL": 0
  },
  {
    "compound": "CCOc1ccc(NC(=O)CC(C)O)cc1 (stereo not drawn) [BUCETIN]",
    "DBIL / mg/dL": 0.02
  },
  {
    "compound": "CC1=C(/C=C/C(C)=C/C=C/C(C)=C/CO)C(C)(C)CCC1 [RETINOL]",
    "DBIL / mg/dL": 0
  },
  {
    "compound": "CC(C)OC(=O)C(C)(C)Oc1ccc(C(=O)c2ccc(Cl)cc2)cc1 [FENOFIBRATE]",
    "DBIL / mg/dL": 0.006
  },
  {
    "compound": "COC1=CC(=O)C[C@@H](C)[C@]12Oc1c(Cl)c(OC)cc(OC)c1C2=O [GRISEOFULVIN]",
    "DBIL / mg/dL": 0.2
  },
  {
    "compound": "CCCNC(=O)NS(=O)(=O)c1ccc(Cl)cc1 [CHLORPROPAMIDE]",
    "DBIL / mg/dL": 0.01
  },
  {
    "compound": "CN1C(=O)CN=C(c2ccccc2)c2cc(Cl)ccc21 [DIAZEPAM]",
    "DBIL / mg/dL": 0.028
  },
  {
    "compound": "COc1ccc2[nH]c([S+]([O-])Cc3ncc(C)c(OC)c3C)nc2c1 (stereo not drawn) [OMEPRAZOLE]",
    "DBIL / mg/dL": 0.064
  },
  {
    "compound": "CN(C)CCCN1c2ccccc2CCc2ccccc21 [IMIPRAMINE]",
    "DBIL / mg/dL": 0.01
  },
  {
    "compound": "CN(C)CCCN1c2ccccc2CCc2ccc(Cl)cc21 [CLOMIPRAMINE]",
    "DBIL / mg/dL": 0.006
  }
]

Numbers sourced from ChEMBL document CHEMBL3885861.
